- measurement-target: T1, human TL1A extracellular domain with N-terminal HIS and FLAG tag (human, UniProt O95150 72-251)
- T1 construct: whole entry named. ~70 kDa fraction purified by gel filtration
- T1 sequence: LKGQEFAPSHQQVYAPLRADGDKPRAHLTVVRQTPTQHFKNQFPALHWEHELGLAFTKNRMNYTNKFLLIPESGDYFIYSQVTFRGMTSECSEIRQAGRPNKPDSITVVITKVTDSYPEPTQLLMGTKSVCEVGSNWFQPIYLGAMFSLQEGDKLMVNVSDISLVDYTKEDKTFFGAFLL
- assay-overview: SPR run 2; supernatant on Protein A; TL1A 10 ug/mL; timepoint 44
# binarize TL1A Binding Level (Early): threshold 200 RU inclusive, high side YES, low side NO

1. 320-210 (antibody, human IgG1, name in Kabat numbering, V domains shown, human IgG1, lambda) VH: QVQLVQSGAEVKKPGASVKVSCKASGYTFTSYDINWVRQAPGQGLEWMGWLNPNSGNTGYAQKFQGRVTMTADRSTSTAYMELSSLRSEDTAVYYCAREVPETAAFEYWGQGTLVTVSS VL: QSVLTQPPSVSGAPGQRVTISCTSQSSDIGAGLGVHWYQQLPGTAPKLLIEGYYNRPSGVPDRFSGSKSGTSASLTITGLLPEDEGDYYCQSYDGTLSALFGGGTKLTVLG ... YES
2. 320-216 (antibody, human IgG1, name in Kabat numbering, V domains shown, human IgG1, lambda) VH: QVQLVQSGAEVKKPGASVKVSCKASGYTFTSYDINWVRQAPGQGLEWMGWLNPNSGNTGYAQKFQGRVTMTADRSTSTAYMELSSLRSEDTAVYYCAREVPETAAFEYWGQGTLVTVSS VL: QSVLTQPPSVSGAPGQRVTISCTSYSSDIGAGLGVHWYQQLPGTAPKLLIEGYYNRPSGVPDRFSGSKSGTSASLTITGLLPEDEGDYYCQSYDGTLSALFGGGTKLTVLG ... NO
3. 320-250 (antibody, human IgG1, name in Kabat numbering, V domains shown, human IgG1, lambda) VH: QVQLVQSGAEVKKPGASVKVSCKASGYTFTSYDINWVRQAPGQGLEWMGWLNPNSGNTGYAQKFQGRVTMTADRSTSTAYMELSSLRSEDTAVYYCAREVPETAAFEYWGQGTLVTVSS VL: QSVLTQPPSVSGAPGQRVTISCTSSSSDIAAGLGVHWYQQLPGTAPKLLIEGYYNRPSGVPDRFSGSKSGTSASLTITGLLPEDEGDYYCQSYDGTLSALFGGGTKLTVLG ... NO
4. 320-249 (antibody, human IgG1, name in Kabat numbering, V domains shown, human IgG1, lambda) VH: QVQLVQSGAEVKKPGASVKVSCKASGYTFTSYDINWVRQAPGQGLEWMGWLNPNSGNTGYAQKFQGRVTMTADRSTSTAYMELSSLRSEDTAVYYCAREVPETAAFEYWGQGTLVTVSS VL: QSVLTQPPSVSGAPGQRVTISCTSSSSDYGAGLGVHWYQQLPGTAPKLLIEGYYNRPSGVPDRFSGSKSGTSASLTITGLLPEDEGDYYCQSYDGTLSALFGGGTKLTVLG ... NO
5. 320-207 (antibody, human IgG1, name in Kabat numbering, V domains shown, human IgG1, lambda) VH: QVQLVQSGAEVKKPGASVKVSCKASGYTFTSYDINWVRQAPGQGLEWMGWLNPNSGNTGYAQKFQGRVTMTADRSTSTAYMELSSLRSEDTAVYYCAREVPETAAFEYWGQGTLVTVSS VL: QSVLTQPPSVSGAPGQRVTISCTWSSSDIGAGLGVHWYQQLPGTAPKLLIEGYYNRPSGVPDRFSGSKSGTSASLTITGLLPEDEGDYYCQSYDGTLSALFGGGTKLTVLG ... YES

Enquiry: Say whether 320-200 (antibody, human IgG1, name in Kabat numbering, V domains shown, human IgG1, lambda) VH: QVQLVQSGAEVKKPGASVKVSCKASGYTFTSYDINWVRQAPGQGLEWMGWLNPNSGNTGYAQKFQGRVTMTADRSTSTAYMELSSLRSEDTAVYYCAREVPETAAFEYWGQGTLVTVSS VL: QSVLTQPPSVSGAPGQRVTISCYSSSSDIGAGLGVHWYQQLPGTAPKLLIEGYYNRPSGVPDRFSGSKSGTSASLTITGLLPEDEGDYYCQSYDGTLSALFGGGTKLTVLG shows TL1A Binding Level (Early) of 200 RU or more.
Return: YES

Enquiry: Check this binder for TL1A Binding Level (Early) at or above 200 RU: 320-193 (antibody, human IgG1, name in Kabat numbering, V domains shown, human IgG1, lambda) VH: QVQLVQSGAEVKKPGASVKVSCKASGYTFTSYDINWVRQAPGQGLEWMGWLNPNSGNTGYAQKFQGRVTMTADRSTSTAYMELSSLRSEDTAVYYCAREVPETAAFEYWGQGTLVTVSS VL: QSVLTQPPSVSGAPGQRVTISCSSSSSDIGAGLGVHWYQQLPGTAPKLLIEGYYNRPSGVPDRFSGSKSGTSASLTITGLLPEDEGDYYCQSYDGTLSALFGGGTKLTVLG
Return: YES

Enquiry: Threshold query (TL1A Binding Level (Early) >= 200 RU) on 320-245 (antibody, human IgG1, name in Kabat numbering, V domains shown, human IgG1, lambda) VH: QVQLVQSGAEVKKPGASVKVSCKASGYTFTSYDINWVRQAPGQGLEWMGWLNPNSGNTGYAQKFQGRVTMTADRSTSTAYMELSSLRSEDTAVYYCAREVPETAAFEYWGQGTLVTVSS VL: QSVLTQPPSVSGAPGQRVTISCTSSSSDHGAGLGVHWYQQLPGTAPKLLIEGYYNRPSGVPDRFSGSKSGTSASLTITGLLPEDEGDYYCQSYDGTLSALFGGGTKLTVLG
Return: NO
